Where these numbers come from: ChEMBL document CHEMBL4251710

pIC50 values by entry
Molecular target: Phospho-N-acetylmuramoyl-pentapeptide-transferase (Staphylococcus aureus, UniProt P0C1R8)
Sequence (P0C1R8 whole entry): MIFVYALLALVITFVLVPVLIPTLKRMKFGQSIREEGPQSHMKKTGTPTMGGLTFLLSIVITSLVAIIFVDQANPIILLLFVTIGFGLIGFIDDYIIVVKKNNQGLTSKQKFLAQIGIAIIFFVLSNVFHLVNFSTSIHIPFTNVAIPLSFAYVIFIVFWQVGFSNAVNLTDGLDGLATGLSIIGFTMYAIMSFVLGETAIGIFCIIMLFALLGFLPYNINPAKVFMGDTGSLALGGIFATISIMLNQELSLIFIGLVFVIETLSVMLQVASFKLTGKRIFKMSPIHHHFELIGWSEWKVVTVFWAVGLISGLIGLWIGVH
Test: Inhibition of Staphylococcus aureus MraY expressed in Escherichia coli membrane using Park's nucleotide as substrate pretreated for 30 mins followed by substrate addition measured up to 2 mins by fluorescence assay
Note on units: pIC50 is unitless, being -log10 of a concentration expressed in mol/L.

# smiles_code, pIC50
measured = [
    ("CO[C@H]1[C@H](O[C@H]([C@H]2O[C@@H](n3ccc(=O)[nH]c3=O)[C@H](O)[C@@H]2O)[C@H](NCCCNC(=O)[C@@H](NC(=O)[C@@H](NC(=O)N[C@H](C(=O)O)C(C)C)[C@@H]2CCNC(=N)N2)[C@@H](OC(=O)CCCCCCCCCCC(C)C)C(C)C)C(=O)O)O[C@H](CN)[C@H]1O", 10.66),
    ("CO[C@H]1[C@H](O[C@H]([C@H]2O[C@@H](n3ccc(=O)[nH]c3=O)[C@H](O)[C@@H]2O)[C@H](NCCCNC(=O)[C@@H](NC(=O)[C@@H](NC(=O)N[C@H](C(=O)O)C(C)C)[C@@H]2CCNC(=N)N2)[C@@H](OC(=O)CCCCCCCCCCCCC(C)C)C(C)C)C(=O)O)O[C@H](CN)[C@H]1O", 11.40),
    ("CO[C@H]1[C@H](O[C@H]([C@H]2O[C@@H](n3ccc(=O)[nH]c3=O)[C@H](O)[C@@H]2O)[C@H](NCCCNC(=O)[C@@H](NC(=O)[C@@H](NC(=O)N[C@H](C(=O)O)C(C)C)[C@@H]2CCNC(=N)N2)[C@@H](O)C(C)C)C(=O)O)O[C@H](CNC(C)=O)[C@H]1O", 10.03),
]

Kindly consider the entry below.
Form: compound = CO[C@H]1[C@H](O[C@H]([C@H]2O[C@@H](n3ccc(=O)[nH]c3=O)[C@H](O)[C@@H]2O)[C@H](NCCCNC(=O)[C@@H](NC(=O)[C@@H](NC(=O)N[C@H](C(=O)O)C(C)C)[C@@H]2CCNC(=N)N2)[C@@H](O)C(C)C)C(=O)O)O[C@H](CN)[C@H]1O ; pIC50 = 10.80
